Property: pIC50; scope: individual compounds
System: Human betaherpesvirus 5
Test: Antiviral activity against human cytomegalo virus using ELISA
Format: functional, organism-based
pIC50: −log10 of the molar value.

{"Smiles repr": "CCOCn1c(N)c(C#N)c2c(N)ncnc21", "Censoring sign": "=", "pIC50": 4.92}
{"Smiles repr": "CCOCn1c(N)c(C(N)=O)c2c(N)ncnc21", "Censoring sign": "<", "pIC50": 4.00}
{"Smiles repr": "NC(=S)c1c(N)n(COCc2ccccc2)c2ncnc(N)c12", "Censoring sign": "=", "pIC50": 4.72}
{"Smiles repr": "COCCOCn1c(N)c(C(N)=O)c2c(N)ncnc21", "Censoring sign": "<", "pIC50": 4.00}
{"Smiles repr": "COCCOCn1c(N)c(C#N)c2c(N)ncnc21", "Censoring sign": "=", "pIC50": 5.05}
{"Smiles repr": "Nc1nc2c(ncn2COC(CO)CO)c(=O)[nH]1", "Censoring sign": "=", "pIC50": 5.66}
{"Smiles repr": "N#Cc1c(N)n(COCc2ccccc2)c2ncnc(N)c12", "Censoring sign": "=", "pIC50": 5.05}
{"Smiles repr": "COCCOCn1c(N)c(C(N)=S)c2c(N)ncnc21", "Censoring sign": "=", "pIC50": 4.70}
{"Smiles repr": "CCOCn1c(N)c(C(=N)S)c2c(N)ncnc21", "Censoring sign": "=", "pIC50": 4.35}
{"Smiles repr": "NC(=O)c1c(N)n(COCc2ccccc2)c2ncnc(N)c12", "Censoring sign": "<", "pIC50": 4.00}

* * *

Experiment: Half life was determined
Assay type: ADME

{"Smiles repr": "COCCOCn1cc(C(=N)S)c2c(N(C)C)ncnc21", "T1/2 [h]": 150}

* * *

Test system: Human alphaherpesvirus 1
Assay: Inhibitory concentration against HSV-1
Assay type: functional, organism-based

{"Smiles repr": "CNc1ncnc2c1c(C(=N)S)cn2COCCOC", "Measure unit": "µM", "IC50": 30}
